cond: 323.15 K; 101.33 kPa; Liquid; Vibrating tube method
measurement kind: mass density (kg/m3)
The reply should be a number in kg/m3, with the unit left off.

[[record]]
molecule = "CCCCCCCCCC(=O)[O-].CCCCCCCCCCCCCC[P+](CCCCCC)(CCCCCC)CCCCCC [trihexyltetradecylphosphonium decanoate]"
units_of_measure = "kg/m3"
reading = 862

[[record]]
molecule = "CCCCCCCC(=O)[O-].CCCCCCCCCCCCCC[P+](CCCCCC)(CCCCCC)CCCCCC [trihexyl(tetradecyl)phosphonium octanoate]"
units_of_measure = "kg/m3"
reading = 865.9


Input line: Quick check: mass density of CC(=O)[O-].CCCCCCCCCCCCCC[P+](CCCCCC)(CCCCCC)CCCCCC [trihexyl(tetradecyl)phosphonium acetate] ?
Output line: 879

Input line: Further, for CCCC(=O)[O-].CCCCCCCCCCCCCC[P+](CCCCCC)(CCCCCC)CCCCCC [trihexyl(tetradecyl)phosphonium butyrate] ?
Output line: 875.1

Input line: Similarly, CCCCCC(=O)[O-].CCCCCCCCCCCCCC[P+](CCCCCC)(CCCCCC)CCCCCC [trihexyl(tetradecyl)phosphonium hexanoate] ?
Output line: 869.7

* * *

cond: 358.2 K; 101.33 kPa; Liquid; Cone and plate viscometry
One threshold, 20 mPa·s, splits the recorded viscosity values: lower ones are class 1, equal or higher ones are class 0.

[[record]]
compound = "CCCC(=O)[O-].CCCCCCCCCCCCCC[P+](CCCCCC)(CCCCCC)CCCCCC [trihexyl(tetradecyl)phosphonium butyrate]"
label_value = "class 0"


Input line: hey, is viscosity for CC(=O)[O-].CCCCCCCCCCCCCC[P+](CCCCCC)(CCCCCC)CCCCCC [trihexyl(tetradecyl)phosphonium acetate] lower than 20 mPa·s or not?
Output line: class 1

Input line: What about this compound? CCCCCC(=O)[O-].CCCCCCCCCCCCCC[P+](CCCCCC)(CCCCCC)CCCCCC [trihexyl(tetradecyl)phosphonium hexanoate]
Output line: class 0

Input line: Please answer likewise for CCCCCCCCCC(=O)[O-].CCCCCCCCCCCCCC[P+](CCCCCC)(CCCCCC)CCCCCC [trihexyltetradecylphosphonium decanoate]
Output line: class 0

Input line: What do you get for CCCCCCCC(=O)[O-].CCCCCCCCCCCCCC[P+](CCCCCC)(CCCCCC)CCCCCC [trihexyl(tetradecyl)phosphonium octanoate] ?
Output line: class 0

* * *

cond: 368.2 K; 101.33 kPa; Liquid; Cone and plate viscometry
measurement kind: viscosity (mPa·s)
Respond with the bare value in mPa·s.

[[record]]
compound = "CCCC(=O)[O-].CCCCCCCCCCCCCC[P+](CCCCCC)(CCCCCC)CCCCCC [trihexyl(tetradecyl)phosphonium butyrate]"
measurement_kind = "viscosity"
reading = 16.49

[[record]]
compound = "CCCCCCCC(=O)[O-].CCCCCCCCCCCCCC[P+](CCCCCC)(CCCCCC)CCCCCC [trihexyl(tetradecyl)phosphonium octanoate]"
measurement_kind = "viscosity"
reading = 24.48

[[record]]
compound = "CCCCCCCCCC(=O)[O-].CCCCCCCCCCCCCC[P+](CCCCCC)(CCCCCC)CCCCCC [trihexyltetradecylphosphonium decanoate]"
measurement_kind = "viscosity"
reading = 27.59

[[record]]
compound = "CC(=O)[O-].CCCCCCCCCCCCCC[P+](CCCCCC)(CCCCCC)CCCCCC [trihexyl(tetradecyl)phosphonium acetate]"
measurement_kind = "viscosity"
reading = 13.72


Turning now to a further record.
Input line: Returns the measured viscosity for the input compound. Input: CCCCCC(=O)[O-].CCCCCCCCCCCCCC[P+](CCCCCC)(CCCCCC)CCCCCC [trihexyl(tetradecyl)phosphonium hexanoate]
Output line: 21.82

Every entry's value here was drawn from the NIST ThermoML archive (doi:10.1016/j.jct.2018.02.013).
